Here the recorded kon is given for each entry.
Molecular target: T1, human GREM1 (hGREM1-His; SEQ ID NO: 595) (human, UniProt O60565 25-184)
T1 construct: also called biotin-hGREM1-His; recombinant human GREM1 protein
T1 sequence: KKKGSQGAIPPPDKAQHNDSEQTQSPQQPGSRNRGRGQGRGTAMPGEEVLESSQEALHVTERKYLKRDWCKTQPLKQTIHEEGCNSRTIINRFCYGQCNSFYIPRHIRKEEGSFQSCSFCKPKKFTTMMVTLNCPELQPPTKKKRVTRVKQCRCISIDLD
Assay: SPR, Biacore T200, 25 C, mAb captured, hGREM1-His injected;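 also: Heparin-supplemented HBS-EP+ used as running buffer, association and dissociation phases followed, Kd computed as koff divided by kon and half-life derived from koff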
Give the number; M⁻¹ s⁻¹ is assumed, so skip it.

Recorded kon of H4H2926N (antibody, human IgG4, V domains shown, H4H prefix = human IgG4 Fc) VH: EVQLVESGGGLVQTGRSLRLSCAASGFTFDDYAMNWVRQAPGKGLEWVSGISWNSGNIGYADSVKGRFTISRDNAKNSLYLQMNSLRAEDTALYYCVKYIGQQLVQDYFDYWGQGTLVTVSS VL: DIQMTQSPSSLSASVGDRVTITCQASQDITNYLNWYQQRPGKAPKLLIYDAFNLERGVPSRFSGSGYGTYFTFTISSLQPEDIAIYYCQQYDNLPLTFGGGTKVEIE , please. 91000

Recorded kon of H2bM2891N (antibody, mouse IgG2, V domains shown, H2M prefix = mouse IgG2 Fc (here H2bM); also called H2M2891N) VH: EVQMVESGGGLVQPGGSLRLSCAASRFTLSNYWMGWVRQAPGKGLEWVANIKQDGSEKYYVDSVRGRFTISRDNAKNSLYLQMNSLRAEDTAVYYCARDYDFWRSFDYWGQGTLVTVPS VL: DIQMTQSPSSVSASVGDRVTITCRASQGVSSWLAWYQQTPGKAPKLLIYVVSSLQSGVPSRFSGSGSGTDFTLTINSLQPEDFATYYCQQGNSFPYTFGQGTKLEIK , please. 20000

Recorded kon of H4H6246P (antibody, human IgG4, V domains shown, H4H prefix = human IgG4 Fc) VH: QVQLVESGGGVVQPGRSLRLSCAASGFTFSSYGMHWVRQAPGKGLEWVAIIWYDGSNRYYADSVKGRFTISRDNSRNTLYLQMNSLRAEDTAVYYCARDEYGDYDYPFDYWGQGTLVTVSS VL: DIQMTQSPSSLSASVGDRVTITCRASQGIRNDLGWFQQKPGKAPKRLIYAASSLQSGVPSRFSGSGSGTEFTLTISSLQPEDFATYYCLQHNTYPPFTFGPGTKVDIK , please. 73900

Recorded kon of H2aM2901N (antibody, mouse IgG2, V domains shown, H2M prefix = mouse IgG2 Fc (here H2aM); also called H2M2901N) VH: EVQLVESGGGLVKPGGSLRLSCAASGFTFSYYSMIWVRQAPGKGLEWVSSISSSSSYIYYADSVKGRFTISRDNAKKSMYLQMNSLRAEDTAVYYCARGSGYPDYWGQGTLVTVSS VL: DIQMTQSPSSLSASVGDRVTITCRASQGINNYLAWYQQKPGKVPKLLIYAASTLRSGVPSRFSGSGSGTDFTLTISSLQPEDVATYYCQKYNSAPFTFGPGTKVDIK , please. 164000

Recorded kon of H4H2895N (antibody, human IgG4, V domains shown, H4H prefix = human IgG4 Fc) VH: EVQLVESGGGLVQPGGSLRLSCAASGFTVSSNYMSWVRQAPGKGLEWVSVIYSGGNTYYADSVKGRFTISRHNSKNTLYLQMNSLRAEDTAVYYCARDLGIKSDYWGQGTLVTVSS VL: EIVLTQSPDFQSVTPKEKVTITCRASQSIGTTLHWYQQKPDQSPKLLIKYVSQSLSGVPSRFSGSGSGTDFTLTINSLEAEDAATYYCHQSSSLPWTFGQGTKVEIK , please. 170000

Recorded kon of H4H6270P (antibody, human IgG4, V domains shown, H4H prefix = human IgG4 Fc) VH: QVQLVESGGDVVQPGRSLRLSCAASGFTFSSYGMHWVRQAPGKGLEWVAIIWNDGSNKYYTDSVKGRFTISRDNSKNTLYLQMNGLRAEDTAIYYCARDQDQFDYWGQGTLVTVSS VL: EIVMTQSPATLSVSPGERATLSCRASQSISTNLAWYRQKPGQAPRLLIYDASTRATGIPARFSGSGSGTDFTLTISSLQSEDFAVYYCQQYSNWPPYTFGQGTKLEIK , please. 42900

Recorded kon of H4H6240P (antibody, human IgG4, V domains shown, H4H prefix = human IgG4 Fc) VH: QVQLVESGGGVVQPGRSLRLSCAASGFTFSSYGMHWVRQAPGKGLEWVAVIWYDGSNKYYADSVKGRFIISRDNSKNMMYLQMNSLRAEDTAVYYCAREDNWNYAFDYWGQGTLVTVSS VL: EIVMTQSPATLSVSPGERATLSCRASQSISSNLAWYQQKPGQAPRLLIYDSSTRATGIPARFSGSGSGTQFTLTISSLQSEDFALYYCQQYSNWPPFTFGPGTKVDIK , please. 79700

Recorded kon of H4H6245P (antibody, human IgG4, V domains shown, H4H prefix = human IgG4 Fc) VH: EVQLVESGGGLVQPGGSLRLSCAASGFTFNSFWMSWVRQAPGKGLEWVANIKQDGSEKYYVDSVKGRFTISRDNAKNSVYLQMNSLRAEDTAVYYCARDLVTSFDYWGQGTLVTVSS VL: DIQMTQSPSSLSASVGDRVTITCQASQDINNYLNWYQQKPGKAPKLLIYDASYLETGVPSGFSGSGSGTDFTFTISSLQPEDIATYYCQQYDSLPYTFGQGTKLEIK , please. 77900

Recorded kon of H2bM2906N (antibody, mouse IgG2, V domains shown, H2M prefix = mouse IgG2 Fc (here H2bM); also called H2M2906N) VH: EVQMVESGGGLVQPGGSLRLSCAASGFTLSNYWMGWVRQAPGKGLEWVANIKQDGSEKYYVDSVRGRFTISRDNAKNSLYLQMNSLRAEDTAVYYCARDYDFWRSFDYWGQGTLVTVSS VL: DIQMTQSPSSVSASVGDRVTITCRASQGVSSWLAWYQQKPGKTPKLLIYVVSSLQSGVPSRFSGRGSGTDFTLTINSLQPEDFATYYCQQGNSFPYTFGQGTKLEIK , please. 80000

Recorded kon of H4H6243P (antibody, human IgG4, V domains shown, H4H prefix = human IgG4 Fc) VH: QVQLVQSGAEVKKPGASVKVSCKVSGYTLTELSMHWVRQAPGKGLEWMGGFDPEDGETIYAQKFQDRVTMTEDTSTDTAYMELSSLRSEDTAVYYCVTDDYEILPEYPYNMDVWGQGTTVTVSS VL: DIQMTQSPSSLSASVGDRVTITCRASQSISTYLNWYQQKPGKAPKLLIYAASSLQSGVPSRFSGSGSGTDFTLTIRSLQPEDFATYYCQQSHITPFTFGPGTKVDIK , please. 15800
